molecular target: Dimer of Gag-Pol polyprotein [489-587] (Human immunodeficiency virus 1); construct: 489-587; test: Protease Inhibition Assay; conditions: pH 5.5; 37 °C
Listed here: items and their measured pIC50.
Value format note: pIC50 is -log10 of concentration (mol/L); just state the number.

In the examples that follow, each entry is paired with its recorded pIC50.
# compound, testSystem, pIC50
records = [
    ("CC(C)(C)OC(=O)N[C@@H](CC1CCCCC1)[C@H](O)CNC[C@@H](O)[C@H](CC1CCCCC1)NC(=O)OC(C)(C)C", "Dimer of Gag-Pol polyprotein [489-587] (Human immunodeficiency virus 1)", 6.10),
    ("CC(C)(C)OC(=O)N[C@@H](CCc1ccccc1)[C@H](O)CNC[C@@H](O)[C@H](Cc1ccccc1)NC(=O)OC(C)(C)C", "Dimer of Gag-Pol polyprotein [489-587] (Human immunodeficiency virus 1)", 6.30),
]

Shift focus to the following entry.
Using the record for CC(C)(C)OC(=O)N[C@@H](Cc1ccccc1)[C@H](O)CNC[C@@H](O)[C@H](Cc1ccc(O)cc1)NC(=O)OC(C)(C)C [BMS-186318 analog 4] , report its pIC50.
7.00

###

biological target: Dimer of Gag-Pol polyprotein [489-587] (Human immunodeficiency virus 1); construct: 489-587; experiment: Protease Inhibition Assay; conditions: pH 5.5; 37 °C
attributeMeasured: Ki (nM)
Quick reminder: number only, in nM, skip the unit.

Endpoint output: Ki of CC(C)(C)OC(=O)N[C@@H](Cc1ccccc1)[C@H](O)CNC[C@@H](O)[C@H](Cc1ccccc1)NC(=O)OC(C)(C)C . Value?
100
